B1: VH:VL chains; a variant is named by its letters at X, in order (parent)
chain 1: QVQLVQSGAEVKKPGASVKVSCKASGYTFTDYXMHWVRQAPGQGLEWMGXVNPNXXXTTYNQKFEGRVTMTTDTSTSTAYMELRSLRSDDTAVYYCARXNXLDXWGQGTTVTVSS
chain 2: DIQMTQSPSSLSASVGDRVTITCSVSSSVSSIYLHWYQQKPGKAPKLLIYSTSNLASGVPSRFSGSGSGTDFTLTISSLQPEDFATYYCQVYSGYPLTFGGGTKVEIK

# Variants of: B1
# RUN DESCRIPTION: yeast display scFab, FACS + sequencing
# CONDITION SUMMARY: with MET
Some of the results follow. The true hit rate is not given.
PROPERTY: antigen binding call

Recorded results for 5 variants are shown here.
1) YARGGDLD ... no binding
2) DKGGAVWT ... no binding
3) YKGAGAWA ... binds
4) AGTKADVV chain 1 G108S ... no binding
5) FREGGALD ... binds

antigen binding call reported for this variant FRRGGALD : binds

antigen binding call reported for this variant DGARNAAA : no binding

antigen binding call reported for this variant FTEEGDGA : no binding
